Form field: APOE RNA (% control) Cortex (one value per entry).
- System: human APOE RNA
- assay_explanation: Activity in APOE C57BL/6NTac-Apoeem7250 knock-in mice, single ICV bolus, 16 weeks (Example 12)
- Assay type: in vivo
- condition_summary: cortex; single ICV bolus 300 μg; 16 weeks post treatment; normalized to mouse Ppia
Strand notation (5' to 3'): a small letter for the sugar, then the base; units joined by * are phosphorothioate-linked, units joined directly phosphodiester-linked; [ ] holds rarer units or linkages, { } end groups; capitals alone tell only the bases. [ms] = mesyl phosphoramidate linkage; e = 2'-O-(2-methoxyethyl) (MOE); k = constrained ethyl (cEt); [5mC] = 5-methylcytosine; d = 2'-deoxy (DNA)
Give your result in % control as a bare value.

Reference set (5 entries):
{"substance": "1757571 (eA*e[5mC]eTeT*eG*kG*dT*dG[ms]dA[ms]dA[ms]dT*d[5mC]*dT*dT*dT*dA[ms]eT*eT*eA*eA; antisense) [Compound 1757571]", "APOE RNA (% control) Cortex": 47}
{"substance": "1693100: 6-10-4 MOE gapmer CTTGGTGAATCTTTATTAAA, linkages sssssszzzssssszsoss (e[5mC]*eT*eT*eG*eG*eT*dG[ms]dA[ms]dA[ms]dT*d[5mC]*dT*dT*dT*dA[ms]dT*eTeA*eA*eA) [compound 1693100]", "APOE RNA (% control) Cortex": 87}
{"substance": "1693140: 6-10-4 MOE gapmer ACTTGGTGAATCTTTATTAA, linkages sssssoszzzssssszoss (eA*e[5mC]*eT*eT*eG*eGdT*dG[ms]dA[ms]dA[ms]dT*d[5mC]*dT*dT*dT*dA[ms]eTeT*eA*eA) [compound 1693140]", "APOE RNA (% control) Cortex": 109}
{"substance": "1778119 (eA*e[5mC]eTeTeG*eG*dT*dG[ms]dA[ms]dA*dT*d[5mC]*dT*dT*dT*dA[ms]kTeT*eA*eA; antisense) [Compound 1778119]", "APOE RNA (% control) Cortex": 62}
{"substance": "1736514 (e[5mC]*eTeT*eG*kG*kT*dG[ms]dA[ms]dA[ms]dT*d[5mC]*dT*dT*dT*dA[ms]dT*eT*eA*eA*eA; antisense) [Compound 1736514]", "APOE RNA (% control) Cortex": 39}

Quick note, APOE RNA (% control) Cortex for 1693080: 6-10-4 MOE gapmer TTGGTGAATCTTTATTAAAC, linkages ssssoszzszssszssoss (eT*eT*eG*eG*eTeG*dA[ms]dA[ms]dT*d[5mC][ms]dT*dT*dT*dA[ms]dT*dT*eAeA*eA*e[5mC]) [compound 1693080] landed at 99

Per the records, this substance ( 1736534 (e[5mC]*eT*eT*eG*eGeT*dG[ms]dA[ms]dA[ms]dT*d[5mC]*dT*dT*dT*dA[ms]dT*kT*kA*eA*eA; antisense) [Compound 1736534] ) has APOE RNA (% control) Cortex equal to 46

The measured APOE RNA (% control) Cortex associated with 1693139: 6-10-4 MOE gapmer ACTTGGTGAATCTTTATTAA, linkages ssssssszzzssssszsss (eA*e[5mC]*eT*eT*eG*eG*dT*dG[ms]dA[ms]dA[ms]dT*d[5mC]*dT*dT*dT*dA[ms]eT*eT*eA*eA) [compound 1693139] reads 92

Record 1693103: 6-10-4 MOE gapmer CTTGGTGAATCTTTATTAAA, linkages sssosszzzssssszssss (e[5mC]*eT*eT*eGeG*eT*dG[ms]dA[ms]dA[ms]dT*d[5mC]*dT*dT*dT*dA[ms]dT*eT*eA*eA*eA) [compound 1693103] , field APOE RNA (% control) Cortex: 84

Lab note: measured APOE RNA (% control) Cortex of 1693043: 5-10-5 MOE gapmer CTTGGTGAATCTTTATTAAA, linkages sssoszzzzssssssosss (antisense e[5mC]*eT*eT*eGeG*dT[ms]dG[ms]dA[ms]dA[ms]dT*d[5mC]*dT*dT*dT*dA*eTeT*eA*eA*eA) [compound 1693043] was 80

###

- Tested on: human APOE RNA
- assay_explanation: Dose-dependent inhibition of human APOE RNA in HepG2 cells, electroporation, 50,000 cells per well, RT-PCR normalized to GAPDH (Example 4, Tables 8-10)
- Type: cell-based
- condition_summary: 13 nM; HepG2, electroporation, 24-hour treatment
Strand notation (5' to 3'): a small letter for the sugar, then the base; units joined by * are phosphorothioate-linked, units joined directly phosphodiester-linked; [ ] holds rarer units or linkages, { } end groups; capitals alone tell only the bases. [ms] = mesyl phosphoramidate linkage; k = constrained ethyl (cEt); [5mC] = 5-methylcytosine; d = 2'-deoxy (DNA)
experimental_endpoint: APOE RNA (% UTC)
Your answer is read as % UTC, so omit the unit and give the number.

{"substance": "1746785 (k[5mC]*kT*dT[ms]kG*dG[ms]dT[ms]dG[ms]dA[ms]dA[ms]dT*d[5mC]*dT*dT*dT*dA[ms]dT*kT*kA*dA[ms]kA; antisense) [Compound 1746785]", "APOE RNA (% UTC)": 93}
{"substance": "1746811 (k[5mC]*dT[ms]dT[ms]kG*kG*dT[ms]dG[ms]dA[ms]dA[ms]dT*d[5mC]*dT*dT*dT*dA[ms]dT*dT[ms]kA*kA*kA; antisense) [Compound 1746811]", "APOE RNA (% UTC)": 86}

Alright, here's another substance for you.
For this substance ( 1746803 (k[5mC]*dT[ms]dT[ms]kG*dG[ms]kT*dG[ms]dA[ms]dA[ms]dT*d[5mC]*dT*dT*dT*dA[ms]dT*kT*dA[ms]kA*kA; antisense) [Compound 1746803] ), measured APOE RNA (% UTC) is 83

###

Entries and their APOE RNA (% control) Spinal Cord values follow.
- System: human APOE RNA
- assay_explanation: Activity in APOE C57BL/6NTac-Apoeem7250 knock-in mice, single ICV bolus, 4 weeks (Example 10)
- Type: in vivo
- condition_summary: spinal cord; single ICV bolus 300 μg; 4 weeks post treatment; normalized to mouse Ppia
Strand notation (5' to 3'): a small letter for the sugar, then the base; units joined by * are phosphorothioate-linked, units joined directly phosphodiester-linked; [ ] holds rarer units or linkages, { } end groups; capitals alone tell only the bases. [ms] = mesyl phosphoramidate linkage; e = 2'-O-(2-methoxyethyl) (MOE); k = constrained ethyl (cEt); [5mC] = 5-methylcytosine; d = 2'-deoxy (DNA)
Give the number; % control is assumed, so skip it.

Observe how each entry below is paired with its result.
{"substance": "1746790 (k[5mC]*dT[ms]kT*dG[ms]dG[ms]kT*dG[ms]dA[ms]dA[ms]dT*d[5mC]*dT*dT*dT*dA[ms]dT*kT*kA*dA[ms]kA; antisense) [Compound 1746790]", "APOE RNA (% control) Spinal Cord": 61}
{"substance": "1778128: modified oligonucleotide complementary to human APOE RNA (eA*e[5mC]eTeTkGkG*dT*dG[ms]dA[ms]dA*dT*d[5mC]*dT*dT*dT*dA[ms]kTeT*eA*eA; antisense) [compound 1778128]", "APOE RNA (% control) Spinal Cord": 40}
{"substance": "1778129: modified oligonucleotide complementary to human APOE RNA (eA*e[5mC]eTeTeG*kG*dT*dG[ms]dA[ms]dA*dT*d[5mC]*dT*dT*dT*dA[ms]kT*kT*eA*eA; antisense) [compound 1778129]", "APOE RNA (% control) Spinal Cord": 47}
{"substance": "1778114: modified oligonucleotide complementary to human APOE RNA (eA*e[5mC]eTeTkG*kG*dT*dG[ms]dA[ms]dA*dT*d[5mC]*dT*dT*dT*dA[ms]eTeT*eA*eA; antisense) [compound 1778114]", "APOE RNA (% control) Spinal Cord": 57}
{"substance": "1757573 (eA*e[5mC]eTeT*eG*eG*dT*dG[ms]dA[ms]dA[ms]dT*d[5mC]*dT*dT*dT*dA[ms]kT*eT*eA*eA; antisense) [Compound 1757573]", "APOE RNA (% control) Spinal Cord": 38}
{"substance": "1785617: modified oligonucleotide complementary to human APOE RNA (k[5mC]*dT[ms]dT[ms]kG*dG[ms]kT*dG[ms]dA[ms]dA[ms]dT[ms]d[5mC]*dT*dT*dT*dA*dT*kT*kA*dA[ms]kA; antisense) [compound 1785617]", "APOE RNA (% control) Spinal Cord": 38}

What the record says about 1778126 (eA*e[5mC]eTeTkG*kG*dT*dG[ms]dA[ms]dA*dT*d[5mC]*dT*dT*dT*dA[ms]kT*eT*eA*eA; antisense) [Compound 1778126] : APOE RNA (% control) Spinal Cord is 72
